Study target: wild type human growth hormone (human, UniProt P01241 27-217)
Sequence (P01241 27-217): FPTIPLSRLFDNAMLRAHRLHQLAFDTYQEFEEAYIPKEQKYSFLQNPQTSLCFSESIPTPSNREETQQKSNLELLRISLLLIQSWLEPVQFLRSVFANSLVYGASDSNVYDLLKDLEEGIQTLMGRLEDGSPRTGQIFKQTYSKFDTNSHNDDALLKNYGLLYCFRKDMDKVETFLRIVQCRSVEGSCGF
Test name: cell-based or functional assay

[
  {
    "Binder": "GlyPro-mTGase from S. ladakanum (enzyme) GPDSDERVTPPAEPLDRMPDPYRPSYGRAETIVNNYIRKWQQVYSHRDGRKQQMTEEQREWLSYGCVGVTWVNSGQYPTNRLAFAFFDEDKYKNELKNGRPRSGETRAEFEGRVAKDSFDEAKGFQRARDVASVMNKALENAHDEGAYLDNLKKELANGNDALRNEDARSPFYSALRNTPSFKDRNGGNHDPSKMKAVIYSKHFWSGQDRSGSSDKRKYGDPEAFRPDRGTGLVDMSRDRNIPRSPTSPGESFVNFDYGWFGAQTEADADKTVWTHGNHYHAPNGSLGAMHVYESKFRNWSDGYSDFDRGAYVVTFVPKSWNTAPDKVKQGWP",
    "RS (relative selectivity)": 1.8
  }
]
